# experimental.details: Cmax in cynomolgus monkey plasma at […] administered via oral gavage measured 24 hrs post dose by LC/MS/MS analysis
# Format: ADME, organism-based, Macaca fascicularis
# Design: dose 2.5 mg/kg, route oral
readout.label: Cmax at 24 h (nM)

entry_smiles=C[C@H](NC(=O)c1c(N)nn2cccnc12)c1cc2cccc(C#Cc3cnn(C)c3)c2c(=O)n1-c1ccccc1 endpoint_unit=nM measured=560

====

# system.tested: Phosphatidylinositol 4,5-bisphosphate 3-kinase catalytic subunit gamma isoform (Homo sapiens, UniProt P48736)
# Sequence (P48736 whole entry, canonical isoform): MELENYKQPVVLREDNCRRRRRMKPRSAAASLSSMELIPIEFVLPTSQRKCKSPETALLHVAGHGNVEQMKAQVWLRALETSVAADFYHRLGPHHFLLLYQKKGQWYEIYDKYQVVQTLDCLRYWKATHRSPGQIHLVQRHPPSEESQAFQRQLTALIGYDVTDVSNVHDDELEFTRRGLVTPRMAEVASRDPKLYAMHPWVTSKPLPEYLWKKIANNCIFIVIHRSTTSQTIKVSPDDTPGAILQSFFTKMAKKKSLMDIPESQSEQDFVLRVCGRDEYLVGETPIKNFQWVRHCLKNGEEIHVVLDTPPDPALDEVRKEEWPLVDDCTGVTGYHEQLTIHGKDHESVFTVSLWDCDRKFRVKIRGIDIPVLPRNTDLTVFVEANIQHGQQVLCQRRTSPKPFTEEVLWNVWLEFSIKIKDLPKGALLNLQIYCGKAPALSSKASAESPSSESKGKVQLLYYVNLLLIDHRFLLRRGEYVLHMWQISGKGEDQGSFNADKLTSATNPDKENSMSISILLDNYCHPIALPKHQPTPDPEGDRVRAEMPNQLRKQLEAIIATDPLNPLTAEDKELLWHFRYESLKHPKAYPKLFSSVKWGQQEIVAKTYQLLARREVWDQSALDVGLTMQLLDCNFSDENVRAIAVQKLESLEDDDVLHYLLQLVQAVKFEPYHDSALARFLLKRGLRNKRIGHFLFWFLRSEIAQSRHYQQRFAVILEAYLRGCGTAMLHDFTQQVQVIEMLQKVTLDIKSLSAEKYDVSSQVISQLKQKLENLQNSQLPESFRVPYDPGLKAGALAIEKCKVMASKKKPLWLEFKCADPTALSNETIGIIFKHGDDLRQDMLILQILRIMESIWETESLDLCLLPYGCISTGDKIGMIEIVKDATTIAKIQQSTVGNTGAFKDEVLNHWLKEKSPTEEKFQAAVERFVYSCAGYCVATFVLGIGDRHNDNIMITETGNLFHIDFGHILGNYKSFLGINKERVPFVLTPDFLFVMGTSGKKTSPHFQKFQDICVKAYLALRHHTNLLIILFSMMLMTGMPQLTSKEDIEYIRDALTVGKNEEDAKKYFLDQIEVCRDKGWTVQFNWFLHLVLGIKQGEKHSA
# experimental.details: biochemical
# Description: Inhibition of human recombinant full length N-terminal His-tagged PI3Kgamma expressed in Sf9 insect cells using diC8PIP2 as substrate incubated for 15 mins followed by substrate addition measured after 2 hr by ADP-Glo luminescence assay
pIC50: −log10 of the molar value.
readout.label: pIC50

entry_smiles=C#Cc1cccc2cc([C@H](C)NC(=O)c3c(N)nn4cccnc34)n(-c3ccccc3)c(=O)c12 readout_label=pIC50 comparison_operator== measured=7.85
entry_smiles=Cc1cccc2cc([C@H](C)NC(=O)c3c(N)nn4cccnc34)n(-c3ccccc3)c(=O)c12 readout_label=pIC50 comparison_operator== measured=6.96
entry_smiles=C[C@H](NC(=O)c1c(N)nn2cccnc12)c1cc2cccc(C#Cc3ccccc3)c2c(=O)n1-c1ccccc1 readout_label=pIC50 comparison_operator== measured=6.55
entry_smiles=COc1cccc2cc([C@H](C)NC(=O)c3c(N)nn4cccnc34)n(-c3ccccc3)c(=O)c12 readout_label=pIC50 comparison_operator== measured=6.00
entry_smiles=C[C@H](NC(=O)c1c(N)nn2cccnc12)c1cc2cccc(C#Cc3ccccn3)c2c(=O)n1-c1ccccc1 readout_label=pIC50 comparison_operator== measured=6.77
entry_smiles=C[C@H](NC(=O)c1cnn2cccnc12)c1cc2cccc(Cl)c2c(=O)n1-c1ccccc1 readout_label=pIC50 comparison_operator== measured=6.40
entry_smiles=C[C@H](NC(=O)c1c(N)nn2cccnc12)c1cc2cccc(C#Cc3cccnc3)c2c(=O)n1-c1ccccc1 readout_label=pIC50 comparison_operator== measured=6.96
entry_smiles=C[C@H](NC(=O)c1c(N)nn2cccnc12)c1cc2cccc(C#N)c2c(=O)n1-c1ccccc1 readout_label=pIC50 comparison_operator== measured=6.62
entry_smiles=Nc1nn2cccnc2c1C(=O)NCc1cc2cccc(Cl)c2c(=O)n1-c1ccccc1 readout_label=pIC50 comparison_operator=< measured=5.15
entry_smiles=C[C@H](NC(=O)c1c(N)ncc2cccnc12)c1cc2cccc(Cl)c2c(=O)n1-c1ccccc1 readout_label=pIC50 comparison_operator== measured=7.22
entry_smiles=C[C@H](NC(=O)c1c(N)nn2cccnc12)c1cc2cccc(C#Cc3cscn3)c2c(=O)n1-c1ccccc1 readout_label=pIC50 comparison_operator== measured=7.12
entry_smiles=C/C=C/c1cccc2cc([C@H](C)NC(=O)c3c(N)nn4cccnc34)n(-c3ccccc3)c(=O)c12 readout_label=pIC50 comparison_operator== measured=6.48
entry_smiles=C[C@H](NC(=O)c1c(N)nn2cccnc12)c1cc2cccc(C#Cc3ccncc3)c2c(=O)n1-c1ccccc1 readout_label=pIC50 comparison_operator== measured=6.46
entry_smiles=CC[C@H](NC(=O)c1c(N)nn2cccnc12)c1cc2cccc(Cl)c2c(=O)n1-c1ccccc1 readout_label=pIC50 comparison_operator== measured=6.82
entry_smiles=C[C@H](NC(=O)c1c(N)nn2cccnc12)c1cc2cccc(C#Cc3nccs3)c2c(=O)n1-c1ccccc1 readout_label=pIC50 comparison_operator== measured=6.44

====

# experimental.details: Volume of distribution at steady state in CD-1 mouse plasma at 1 mg/kg, iv measured 24 hrs post dose by LC/MS/MS analysis
# Assay type: ADME, organism-based
# condition.description: read-out: Vdss
readout.label: Vd (L/kg)

entry_smiles=C[C@H](NC(=O)c1c(N)nn2cccnc12)c1cc2cccc(C#Cc3cnn(C)c3)c2c(=O)n1-c1ccccc1 readout_label=Vd measured=0.8

The reported numbers originate from ChEMBL document CHEMBL3853350.
